Reported %max values follow for various compounds
Target: Neuronal acetylcholine receptor subunit alpha-7 (Homo sapiens, UniProt P36544)
Sequence (P36544 whole entry): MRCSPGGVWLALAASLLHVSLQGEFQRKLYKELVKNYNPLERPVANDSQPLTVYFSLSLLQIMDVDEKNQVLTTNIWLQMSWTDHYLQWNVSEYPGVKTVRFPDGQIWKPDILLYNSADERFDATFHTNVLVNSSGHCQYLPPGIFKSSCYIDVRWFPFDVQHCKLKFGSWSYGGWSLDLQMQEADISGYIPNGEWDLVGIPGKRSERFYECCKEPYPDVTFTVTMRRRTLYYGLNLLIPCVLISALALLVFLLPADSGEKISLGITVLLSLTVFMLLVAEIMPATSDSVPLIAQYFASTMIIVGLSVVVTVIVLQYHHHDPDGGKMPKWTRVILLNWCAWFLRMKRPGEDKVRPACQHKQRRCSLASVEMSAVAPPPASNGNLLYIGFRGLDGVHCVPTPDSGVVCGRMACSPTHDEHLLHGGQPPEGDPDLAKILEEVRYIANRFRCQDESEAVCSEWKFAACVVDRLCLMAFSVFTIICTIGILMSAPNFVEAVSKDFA
Assay: Positive allosteric modulation of human alpha7 nAChR expressed in Xenopus laevis oocytes assessed as increase in Ach-induced current at -90 mV membrane potential at 10 uM by two electrode voltage-clamp assay relative to acetylcholine response
Type: cell-based
Conditions: filed as positive allosteric modulator
The response must be a number in % with no trailing unit.

Worked cases, %max given:
INSERT INTO results (entry_smiles, experimental_value) VALUES
  ('FC(F)(F)Oc1ccc(Nc2nc(Cl)nc(Sc3ccc(Cl)cc3)n2)cc1', 940),
  ('Cc1ccc(Sc2nc(Cl)nc(Nc3ccc(OC(F)(F)F)cc3)n2)cc1', 380),
  ('CC(=O)Nc1ccc(-c2nc(Cl)nc(Nc3ccc(OC(F)(F)F)cc3)n2)cc1', 630);

# input for lookup
Incoming: Consider the compound shown here: COc1ccc(Sc2nc(Cl)nc(Nc3ccc(OC(F)(F)F)cc3)n2)cc1 What is its recorded %max?
Outgoing: 190
